- Organism: Rattus norvegicus
- TEST_METHOD_NOTES: Anticoagulant activity in vitro was evaluated by prolongation rate of prothrombin time
- Format: functional
OUTCOME_MEASURE: Anticoagulant activity (µM)

>>> endpoint_value("O=C(c1nc2c(s1)CNCC2)N1CCN(S(=O)(=O)c2ccc3cc(Cl)ccc3c2)CC1")
16.1
>>> endpoint_value("CN1CCc2nc(C(=O)N3CCN(S(=O)(=O)c4ccc5cc(Cl)ccc5c4)CC3)sc2C1")
10
>>> endpoint_value("CC(C)N1CCc2nc(C(=O)N3CCN(S(=O)(=O)c4ccc5cc(Cl)ccc5c4)CC3C(N)=O)sc2C1 (stereo unspecified)")
17.5
>>> endpoint_value("NC(=O)C1CN(S(=O)(=O)c2ccc3cc(Cl)ccc3c2)CCN1C(=O)c1nc2c(s1)CNCC2 (stereo unspecified)")
28.8
>>> endpoint_value("CN1CCc2nc(C(=O)N3CCN(S(=O)(=O)c4ccc5cc(Cl)ccc5c4)CC3C(N)=O)sc2C1 (stereo unspecified)")
14
>>> endpoint_value("CCN1CCc2nc(C(=O)N3CCN(S(=O)(=O)c4ccc5cc(Cl)ccc5c4)CC3C(N)=O)sc2C1 (stereo unspecified)")
14.6
